# METHOD: solubility in water, dilute hydrochloric acid and Carmody's buffer by absorbance at 317 nm
# Assay type: physicochemical
# CONDITION_DETAILS: carmody's buffer; 25° C.; pH 4; read-out: Solubility in Carmody's buffer
MEASURED_METRIC: solubility (µg/mL)

- CCOC(=O)[N-]c1c[n+](N2CCN(CCCCC(=O)c3ccccc3)CC2)no1 [Compound A]: 4400

###

# METHOD: solubility in water, dilute hydrochloric acid and Carmody's buffer by absorbance at 317 nm
# Format: physicochemical
# CONDITION_DETAILS: water; 25° C.; read-out: Solubility in water
# Protocol: The solubility of the N-ethoxycarbonyl-3-[4-(4-benzoylbutyl)piperazin-1-yl]sydnonimine obtained in Example 1 in water dilute hydrochloric acid and the Carmody's buffer was measured by the absorbance of the solution at 317 nm.
MEASURED_METRIC: solubility (µg/mL)

• CCOC(=O)[N-]c1c[n+](N2CCN(CCCCC(=O)c3ccccc3)CC2)no1 = 10

Every entry's value here was drawn from patent US4430342A.
